# Tested on: Klebsiella aerogenes DSM 30053
# PROTOCOL_SUMMARY: growth (OD595) fold change vs plate DMSO controls (fold change (ratio)); higher = more growth
# EXPERIMENTAL_SETUP: incubation time: 27 h, anaerobic, 37 °C
Where a name gives a salt, the structure may show the parent alone.
RESULT_TYPE: growth
Write the number on its own, no unit after it.

1. Cn1c(=O)c2c(ncn2CC(O)CO)n(C)c1=O (stereo unspecified) [Diprophylline] (20 µM) = 0.992

Exam item: I'd like to know its growth. The compound in question is OC(Cn1cncn1)(Cn1cncn1)c1ccc(F)cc1F [Fluconazole] (20 µM)
Marked response: 1.01

Exam item: I am curious: what growth value has been reported for CC(=O)[C@H]1CC[C@H]2[C@@H]3C[C@H](C)C4=CC(=O)CC[C@]4(C)[C@H]3[C@@H](O)C[C@]12C [Medrysone] (20 µM) ?
Marked response: 1.05

Exam item: Any idea what its growth is? The compound is Nc1ccc(/N=N/c2ccccc2)c(N)n1 [Phenazopyridine hydrochloride] (20 µM)
Marked response: 0.982

Exam item: Which measured growth value corresponds to CC(C)(C)C(=O)C(Oc1ccc(Cl)cc1)n1ccnc1 (stereo unspecified) [Climbazole] (20 µM) ?
Marked response: 1.07
